Target: T1, 4H3185-bN
T1 chain: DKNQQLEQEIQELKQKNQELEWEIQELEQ
Test: two-hybrid library CCNG1;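 also: natural log of median RNA to DNA barcode read ratio; higher means stronger binding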
Rule: rule met for interaction score not less than -0.9, rule not met for anything less.

- Binder: "DENQQLEQENQELKQKIQELKWEIQELEQ [4H1257-bN]"
  Classification: "rule not met"
- Binder: "DKIQQLEQKNQELEQEIQELKWEIQELKQ [4H2442-bN]"
  Classification: "rule not met"
- Binder: "DKNQQLEQEIQELKQKNQELEWEIQELEQ [4H3185-bN]"
  Classification: "rule not met"
- Binder: "DKIQQLKQEIQELEQKNQELKWEIQELKQ [4H2618-bN]"
  Classification: "rule met"
- Binder: "DENQQLKQKIQELEQKIQELEWENQELKQ [4H1828-bN]"
  Classification: "rule met"
- Binder: "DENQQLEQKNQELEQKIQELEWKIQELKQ [4H1446-bN]"
  Classification: "rule met"
- Binder: "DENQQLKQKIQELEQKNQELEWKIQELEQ [4H1845-bN]"
  Classification: "rule met"
- Binder: "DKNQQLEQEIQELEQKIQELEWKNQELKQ [4H3112-bN]"
  Classification: "rule not met"
- Binder: "DENQELEKKIEELKREIWELEKENQELKR [4H1348-bH]"
  Classification: "rule not met"
- Binder: "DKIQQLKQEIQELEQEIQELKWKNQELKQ [4H2576-bN]"
  Classification: "rule met"
- Binder: "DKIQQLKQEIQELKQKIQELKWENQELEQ [4H2667-bN]"
  Classification: "rule met"
